system: MDA-MB-436 cells; test: Cell proliferation assay (MDA-MB-436); assay type: cell-based; settings: Homo sapiens, 168 h, 7 days
pIC50: −log10 of the molar value.
Metric: pIC50

Exercise: Write down pIC50 measured for item COC12CCC(CNCC(=O)N3CCCC(c4cccc(C(=O)N[C@@H](C(=O)N5CCC(CN6CCN(CC(=O)N7CCN(C(=O)c8cc(Cc9n[nH]c(=O)c%10ccccc9%10)ccc8F)CC7)CC6)CC5)C5CCCCC5)c4)C3)(CC1)OC2 (stereo partly shown) [Compound I-165]
Solution: 7.00 to 8.00

Exercise: Write down pIC50 measured for item CCOc1cc(OC)ccc1CNCC(=O)N1CCCC(c2ccc(F)c(C(=O)N[C@@H](C(=O)N3CCN(CC4CCN(CC(=O)N5CCN(C(=O)c6cc(Cc7n[nH]c(=O)c8ccccc78)ccc6F)CC5)CC4)CC3)C3CCCCC3)c2)C1 (stereo partly shown) [Compound I-308]
Solution: 6.00 to 7.00

Exercise: Write down pIC50 measured for item CC1(OC2CCN(CC(=O)N3CCN(C(=O)c4cc(Cc5n[nH]c(=O)c6ccccc56)ccc4F)CC3)CC2)CCN(C(=O)[C@H](NC(=O)c2cccc(C3CCCN(C(=O)C45CC(C4)C5)C3)c2F)C2CCCCC2)CC1 (stereo partly shown) [Compound I-892]
Solution: 7.00 to 8.00

Exercise: Write down pIC50 measured for item CCOc1cc(OC)ccc1CNCC(=O)N1CCCC(c2cccc(C(=O)N[C@@H](C(=O)NCCOCCOCCOCCOCCNCC(=O)N3CCN(C(=O)c4cc(Cc5n[nH]c(=O)c6ccccc56)ccc4F)CC3)C3CCCCC3)c2)C1 (stereo partly shown) [Compound I-31]
Solution: 6.00 to 7.00

Exercise: Write down pIC50 measured for item CC(C)(F)C(=O)N1CCCC(c2cccc(C(=O)N[C@@H](C(=O)N3CCN(CC4CCN(CC(=O)N5CCN(C(=O)c6cc(Cc7n[nH]c(=O)c8ccccc78)ccc6F)CC5)CC4)CC3)C3CCCCC3)c2)C1 (stereo partly shown) [Compound I-528]
Solution: > 8.00

Exercise: Write down pIC50 measured for item O=C(CN1CCN(CC2CCN(C(=O)c3c(F)cc(-c4cnccn4)cc3F)CC2)CC1)N1CCN(C(=O)c2cc(Cc3n[nH]c(=O)c4ccccc34)ccc2F)CC1 [Compound I-739]
Solution: > 8.00

Exercise: Write down pIC50 measured for item CCc1cccc(-c2cnc(C(=O)NC34CCC(CN5CCN(CC(=O)N6CCN(C(=O)c7cc(Cc8n[nH]c(=O)c9ccccc89)ccc7F)CC6)CC5)(CC3)OC4)c(NC(=O)OC(C)(C)C)c2)c1 [Compound I-800]
Solution: > 8.00

Exercise: Write down pIC50 measured for item O=C(N[C@@H](C(=O)N1CCN(CC(=O)N2CCN(C(=O)c3cc(Cc4n[nH]c(=O)c5ccccc45)ccc3F)CC2)CC1)C1CCCCC1)c1cccc(C2CCCN(C(=O)CNCc3ccc(F)cc3F)C2)c1 (stereo partly shown) [Compound I-963]
Solution: 6.00 to 7.00

Exercise: Write down pIC50 measured for item CCc1cccc(-c2cc(F)c(C(=O)N3CCC(OC4CCN(CC(=O)N5CCN(C(=O)c6cc(Cc7n[nH]c(=O)c8ccccc78)ccc6F)CC5)CC4)CC3)c(F)c2)c1 [Compound I-590]
Solution: > 8.00

Exercise: Write down pIC50 measured for item CCc1cccc(-c2cnc(C(=O)N3CCC(CN4CCN(CC(=O)N5CCN(C(=O)c6cc(Cc7n[nH]c(=O)c8ccccc78)ccc6F)CC5)CC4)CC3)c(NC(C)=O)c2)c1 [Compound I-367]
Solution: 6.00 to 7.00
